Just for reference, ChEMBL document CHEMBL4513143 is where these values come from.

Tested on: Escherichia coli
Conditions: Concentration 32 ug.mL-1; ASSAY_TEST Inhibition of Bacterial Growth; detection method Absorption (OD600); MEDIA CAMHB; plate type 384well; NBS; CORNING #3640; time 18 hr
Description: Antibacterial activity against Escherichia coli ATCC 25922 (CO-ADD:GN_001); MIC in CAMBH media using NBS plates, by OD(600)
Measured potencies and affinities stand elsewhere.
READOUT LABEL: Inhibition (%)
Record the value in %, omitting the unit from your answer.

The following compounds have reported results that may help.
{"COMPOUND": "CCN(CC)CC.C[C@H](CC1O[C@H]([C@@H](O)CO)[C@@H](O)[C@H](O)[C@@H]1O)OP(=O)(O)OC[C@H]1O[C@@H](n2cnc3c(N)ncnc32)[C@H](O)[C@@H]1O (stereo partly specified)", "MEASURED TARGET": "Escherichia coli", "Inhibition, %": 11.12}
{"COMPOUND": "CCN(CC)CC.C[C@@H](CC1O[C@H]([C@H](O)CO)[C@@H](O)[C@H](O)[C@@H]1O)OP(=O)(O)OC[C@H]1O[C@@H](n2cnc3c(N)ncnc32)[C@H](O)[C@@H]1O (stereo partly specified)", "MEASURED TARGET": "Escherichia coli", "Inhibition, %": 10.57}
{"COMPOUND": "CCN(CC)CC.C[C@H](CC1O[C@H]([C@H](O)CO)[C@@H](O)[C@H](O)[C@@H]1O)OP(=O)(O)OC[C@H]1O[C@@H](n2cnc3c(N)ncnc32)[C@H](O)[C@@H]1O (stereo partly specified)", "MEASURED TARGET": "Escherichia coli", "Inhibition, %": 16.06}
{"COMPOUND": "CCN(CC)CC.C[C@@H](CC1O[C@H]([C@@H](O)CO)[C@@H](O)[C@H](O)[C@@H]1O)OP(=O)(O)O (stereo partly specified)", "MEASURED TARGET": "Escherichia coli", "Inhibition, %": 26.95}
{"COMPOUND": "CCN(CC)CC.C[C@H](CC1O[C@H]([C@@H](O)CO)[C@@H](O)[C@H](O)[C@@H]1O)OP(=O)(O)O (stereo partly specified)", "MEASURED TARGET": "Escherichia coli", "Inhibition, %": 26.24}

Given the compound OC[C@@H](O)[C@H]1OC(O)C[C@@H](O)[C@@H]1O (stereo partly specified) , what is its reported Inhibition? 15.99

###

Readings of Inhibition for the listed compounds
Test system: Staphylococcus aureus
Conditions: Concentration 32 ug.mL-1; ASSAY_TEST Inhibition of Bacterial Growth; detection method Absorption (OD600); MEDIA CAMHB; plate type 384well; NBS; CORNING #3640; time 18 hr
Description: Antibacterial activity against Staphylococcus aureus MRSA ATCC 43300 (CO-ADD:GP_020); MIC in CAMBH media, using NBS plates, by OD(600)
Potency and affinity values are given separately.
Record the value in %, omitting the unit from your answer.

Some compounds with recorded Inhibition:
{"COMPOUND": "CCN(CC)CC.C[C@@H](CC1O[C@H]([C@@H](O)CO)[C@@H](O)[C@H](O)[C@@H]1O)OP(=O)(O)OC[C@H]1O[C@@H](n2cnc3c(N)ncnc32)[C@H](O)[C@@H]1O (stereo partly drawn)", "UOM": "%", "Inhibition": 27.76}
{"COMPOUND": "CCN(CC)CC.C[C@@H](CC1O[C@H]([C@@H](O)CO)[C@@H](O)[C@H](O)[C@@H]1O)OP(=O)(O)O (stereo partly drawn)", "UOM": "%", "Inhibition": 24.59}

I'd like to know its Inhibition. The compound in question is CCN(CC)CC.C[C@H](CC1O[C@H]([C@@H](O)CO)[C@@H](O)[C@H](O)[C@@H]1O)OP(=O)(O)OC[C@H]1O[C@@H](n2cnc3c(N)ncnc32)[C@H](O)[C@@H]1O (stereo partly drawn) 25.31
